- Test system: Eubacterium rectale
- procedure.summary: growth AUC relative to DMSO control (median of replicates) (fraction); higher = more growth (less inhibition), active = hit call of the paper
- measurement.conditions: 20 µM; 24 h
readout.type: growth AUC
// print number alone

Would you please look over these solved cases?
> print(dat)
                                   compound  number
1  CC(C)N(C)S(=O)(=O)NC(=O)c1cc(-n2c(=O)cc(C(F)(F)F)n(C)c2=O)c(F)cc1Cl    1.01
2                             Cc1c(N)cccc1N    1.01
3           CCCOCCN(C(=O)CCl)c1c(CC)cccc1CC    1.02
4  O=C(NC(=O)c1c(F)cccc1F)Nc1ccc(OC(F)(F)C(F)OC(F)(F)F)c(Cl)c1 (stereo not drawn)    0.99
5  CC(C1CC1)C(O)(Cn1cncn1)c1ccc(Cl)cc1 (mixture of isomers)    1.02

Now take the following compound into account.
Query string: State its growth AUC on Eubacterium rectale: CC/C(=N\OC/C=C/Cl)C1=C(O)CC(C2CCOCC2)CC1=O (stereo not drawn)
Result string: 0.996

* * *

- System: Bacteroides clarus
- procedure.summary: growth AUC relative to DMSO control (median of replicates) (fraction); higher = more growth (less inhibition), active = hit call of the paper
- measurement.conditions: 20 µM; 24 h
readout.type: growth AUC
Reply briefly: the number, and no unit.

> print(dat)
                            chemical.smiles  number
1                      CCSCc1ccccc1OC(=O)NC   0.972
2  CCOc1ccccc1OS(=O)(=O)NC(=O)Nc1nc(OC)cc(OC)n1   0.972
3  CCOc1cc(Oc2ccc(C(F)(F)F)cc2Cl)ccc1[N+](=O)[O-]    1.01

Query string: Given the entry C[n+]1ccc(-c2cc[n+](C)cc2)cc1.O.[Cl-].[Cl-] , report its measured growth AUC.
Result string: 1

* * *

- Tested on: Odoribacter splanchnicus
- procedure.summary: growth AUC relative to DMSO control (median of replicates) (fraction); higher = more growth (less inhibition), active = hit call of the paper;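 active = AUC reduced over 20% with Padj below 0.05 in at least 2 of 3 replicates; inactive = otherwise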
- measurement.conditions: 20 µM; 24 h
Answer with one of the outcomes active, inactive

Reference set, count: 5
> print(dat)
                                   compound     class
1            CCC(C)(c1ccc(O)cc1)c1ccc(O)cc1  inactive
2  CCCN(CCCl)c1c([N+](=O)[O-])cc(C(F)(F)F)cc1[N+](=O)[O-]  inactive
3                                 S=C1NCCN1  inactive
4         N#Cc1c[nH]cc1-c1cccc2c1OC(F)(F)O2  inactive
5            NC(=O)/N=C1/SCCN1Cc1ccc(Cl)nc1  inactive

Query string: For CC(Oc1ccc(Oc2ccc(Cl)cc2Cl)cc1)C(=O)O (racemic) , what call appears in the results of this test?
Result string: inactive

Query string: Which outcome did this test record for the compound COc1ccc(/C(=C/C(=O)N2CCOCC2)c2ccc(Cl)cc2)cc1OC ?
Result string: inactive

Query string: Outcome logged for Nc1nc(N)[nH]c(=O)n1 in this assay:
Result string: inactive

Query string: # outcome recorded in this test, key = COC(=O)C(Cl)Cl
Result string: inactive

Query string: Recorded test outcome, item O=C(O)CNCP(=O)(O)O
Result string: inactive

* * *

- System: Bacteroides thetaiotaomicron
- procedure.summary: growth AUC relative to DMSO control (median of replicates) (fraction); higher = more growth (less inhibition), active = hit call of the paper
- measurement.conditions: 20 µM; 24 h
// growth AUC lookup, one value per entry
Response field accepts a number only; no unit should be typed.

> print(dat)
                                   compound  readout.type  number
1              CCNc1nc(Cl)nc(NC(C)(C)C#N)n1    growth AUC   0.998
2                          CP(=O)(O)CC(=O)O    growth AUC   0.992
3        CNC(=O)Oc1cc(C)c(S(C)(=O)=O)c(C)c1    growth AUC    0.97
4                        CNC(=O)O/N=C(\C)SC    growth AUC   0.988
5  CC(C)=CC1C(C(=O)OCc2cccc(Oc3ccccc3)c2)C1(C)C (mixture of isomers)    growth AUC       1

As a next step, examine the compound that follows.
Query string: growth AUC for CCOC(=O)CC(SP(=O)(OC)OC)C(=O)OCC (centres undefined) ?
Result string: 1.01

* * *

Each record here notes measured growth AUC.
- Test system: Roseburia intestinalis
- procedure.summary: growth AUC relative to DMSO control (median of replicates) (fraction); higher = more growth (less inhibition), active = hit call of the paper
- measurement.conditions: 20 µM; 24 h
// response body must contain only the number

> print(dat)
                                   compound  readout.type  number
1            COP(=S)(OC)Oc1nc(Cl)c(Cl)cc1Cl    growth AUC       1
2  CCOC(=O)CC(SP(=O)(OC)OC)C(=O)OCC (stereo not drawn)    growth AUC   0.997
3              CCOP(=S)(OCC)Oc1cnc2ccccc2n1    growth AUC    0.99
4  O=C(NC(=O)c1c(F)cccc1F)Nc1cc(Cl)c(OC(F)(F)C(F)F)c(Cl)c1    growth AUC   0.977

Query string: Report growth AUC for COC(=O)NCc1cc(/C(C)=N/OCc2cccc(C)n2)ccc1Cl please.
Result string: 0.957

Query string: Recorded growth AUC for C[C@@H](Oc1ccc(Oc2ccc(C(F)(F)F)cn2)cc1)C(=O)O , please?
Result string: 0.99

Query string: Param item = CCOP(=O)(OCC)Oc1ccc(S(C)(=O)=O)cc1 ; retrieve measured growth AUC.
Result string: 0.974

Query string: Quick check: growth AUC of Cc1c(N)cccc1N ?
Result string: 0.997

Query string: Find the recorded growth AUC belonging to COC(=O)c1cc(Oc2ccc(Cl)cc2Cl)ccc1[N+](=O)[O-] and report it.
Result string: 0.891

Query string: Look up growth AUC: C1=Cc2cccc3cccc1c23
Result string: 0.987

* * *

- System: Bacteroides dorei
- procedure.summary: growth AUC relative to DMSO control (median of replicates) (fraction); higher = more growth (less inhibition), active = hit call of the paper
- measurement.conditions: 20 µM; 24 h
readout.type: growth AUC
Number only, no unit.

Examples with their reported growth AUC follow.
> print(dat)
                                   compound  experimental.system  readout.type  number
1                     CNC(=O)Oc1ccccc1C(C)C    Bacteroides dorei    growth AUC    1.03
2  CCCCC(C#N)(Cn1cncn1)c1ccc(Cl)cc1 (stereo not drawn)    Bacteroides dorei    growth AUC    0.98
3                          CN1CSC(=S)N(C)C1    Bacteroides dorei    growth AUC    1.03

Query string: Recorded growth AUC of CN(C)S(=O)(=O)N(SC(F)(Cl)Cl)c1ccccc1 , please.
Result string: 0.998

Query string: Item under review: CC1(C)[C@H](C=C(Cl)Cl)[C@H]1C(=O)OCc1c(F)c(F)cc(F)c1F . Reported growth AUC?
Result string: 1.07

Query string: Requested read-out: growth AUC. Entry: CCOP(=O)(OCC)OCC
Result string: 0.972

Query string: Recorded growth AUC for CC1(C)C(C=C(Cl)Cl)C1C(=O)OC(C#N)c1ccc(F)c(Oc2ccccc2)c1 (mixture of isomers) , please?
Result string: 0.995

Query string: What growth AUC value was documented for this compound, O=C(O)C(Cl)Cl ?
Result string: 1.02

Query string: So what's the measured growth AUC for this one? OC(c1ccc(Cl)cc1)(c1ccc(Cl)cc1)C(Cl)(Cl)Cl
Result string: 0.954

Query string: Returns the measured growth AUC for the input compound. Input: O=C(NC(=O)c1c(F)cccc1F)Nc1cc(Cl)c(OC(F)(F)C(F)C(F)(F)F)cc1Cl (stereo not drawn)
Result string: 1.02

Query string: Please give the measured growth AUC for this compound: CC(C)C(C(=O)OC(C#N)c1cccc(Oc2ccccc2)c1)c1ccc(Cl)cc1 (stereo not drawn)
Result string: 0.935

Query string: Return reported growth AUC; argument: CCOP(=O)(OCC)O/C(=C/Br)c1ccc(Cl)cc1Cl
Result string: 0.948

Query string: So what's the measured growth AUC for this one? O=C(Nc1ccccc1)c1ccccc1I
Result string: 0.994

* * *

- Tested on: Eubacterium rectale
- procedure.summary: growth AUC relative to DMSO control (median of replicates) (fraction); higher = more growth (less inhibition), active = hit call of the paper
- measurement.conditions: 20 µM; 24 h
readout.type: growth AUC
Please give the numeric answer without any surrounding text.

# count of solved cases: 4
> print(dat)
                                   compound  readout.type  number
1  C#CCOS(=O)OC1CCCCC1Oc1ccc(C(C)(C)C)cc1 (mixture of isomers)    growth AUC       1
2    COCC(=O)N(c1c(C)cccc1C)[C@H](C)C(=O)OC    growth AUC    1.01
3                        CCCCN(CC)C(=O)SCCC    growth AUC   0.982
4  ClC1=C(Cl)C2(Cl)[C@H]3[C@@H]4O[C@@H]4[C@H](Cl)[C@H]3C1(Cl)C2(Cl)Cl (single isomer, unassigned; isomer b)    growth AUC   0.979

Read the next record carefully.
Query string: Would you kindly share the measured growth AUC for CNC(=O)ON=C(CSC)C(C)(C)C ?
Result string: 0.981
